Here the recorded hIL11 - average signal is given for each entry.
- ASSAY_TARGET: T1, Human IL-11 (human, UniProt P20809 22-199)
- T1 construct: Recombinant human IL-11 (GenScript Cat. No. Z03108-1) or IL-11 secreted by human cells; the mature form is said to have 178 residues; also called recombinant human IL-11; endogenously produced IL-11
- T1 sequence: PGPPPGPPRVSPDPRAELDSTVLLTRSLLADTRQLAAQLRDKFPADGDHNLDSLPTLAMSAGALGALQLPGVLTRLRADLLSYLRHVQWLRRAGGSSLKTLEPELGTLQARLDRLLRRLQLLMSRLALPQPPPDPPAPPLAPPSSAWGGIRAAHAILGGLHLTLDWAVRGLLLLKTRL
- EXPERIMENT_SUMMARY: ELISA
Field format: numeric only.

Some entries whose results are on file:
>>> number("YU100-H06 (antibody) QVQLVESGGGVVQPGRSLRLSCAASGFTFSSYGMHWVRQAPGKGLEWVAVISYDGSNKYYADSVKGRFTISRDNSKNTLYLQMNSLRAEDTAVYYCAKIGATDPLDYWGQGTLVTVSSGSASAPKLEEGEFSEARIQSALTQPRSVSGSPGQSVTISCTGTSSDVGGYNYVSWYQQHPGKAPKLMIYDVTKRPSGVPDRFSGSKSGNTASLTISGLQAEDEADYYCSSYAGSYTWVFGGGTKLTVL")
0.181
>>> number("YU100-E08 (antibody) QVQLVQSGGGVVQPGRSLRLSCAASGFTFSSYAMHWVRQAPGKGLEWVAVISYDGSNKYYADSVKGRFTISRDNSKNTLYLQMNSLRAEDTAVYYCARIMGYDYGDYDVVDYWGQGTLVTVSSGSASAPKLEEGEFSEARVQSALTQPRSVSGSPGQSVTISCTGTSSDVGGYNYVSWYQQHPGKAPKLMIYDVSRRPSGVPDRFSGSKSGNTASLTISGLQAEDEADYYCCSYAGNYTWMFGGGTKLTVL")
0.214
>>> number("YU112-G06 (antibody) QVQLQESGGGVVQPGRSLRLSCAASGFTFSSYGMHWVRQAPGKGLEWVAVISYDGSNKYYADSVKGRFTISRDNSKNTLYLQMNSLRAEDTAVYYCAKIGATDPLDYWGQGTLVTVSSGSASAPKLEEGEFSEARVQSALTQPRSVSGSPGQSVTISCTGTISDVGGYNYVSWYQQHPGKAPKLMIYDVTKRRSGVPDRFSGSKSGNTASLTISGLQAEDEAGYYCSSYAGGYTWVFGGGTELTVL")
0.664
>>> number("YU100-D11 (antibody) QVQLVQSGGGVVQPGRSLRLSCAASGFTFSSYGMHWVRQAPGKGLEWVAVISYDGSNKYYADSVKGRFTISRDNSKNTLYLQMNSLRAEDTAVYYCAKIGATDPLDYWGQGTLVTVSSGSASAPKLEEGEFSEARVQSALTQPRSVSGSPGQSVTISCTGTSSNVGGYNYVSWYQQHPGKAPKLMIYDVSKRPSGVPDRFSGSKSGNTASLTISGLQAEDEANYYCASYAGNYNWVFGGGTKLTVLGQPKAAPSVTLFPPSS")
0.447

Turning to the following binder.
Please look up its hIL11 - average signal: YU100-H01 (antibody, human IgG1, V domains shown, Light chain shuffled human antibody; Only the variable domains are tied to the clone) VH: QVQLVQSGGGVVQPGRSLRLSCAASGFTFSSYAMHWVRQAPGKGLEWVAVISYDGSNKYYADSVKGRFTISRDNSKNTLYLQMNSLRAEDTAVYYCARIMGYDYGDYDVVDYWGQGTLVTVSS VL: QSALTQPRSVSGSPGQSVTISCTGTSSDVGAYNYVSWYQQHPGKAPKLMIYDVSERPSGVPDRFSGSKSGNTASLTISGLQAEDEADYYCCSYAGSYTWVFGGGTKLTVLG
0.43
